tgt: Cytochrome P450 3A4 (Homo sapiens)
procedure summary: Cytochrome panel assay with activity outcomes
experimental parameters: recombinant CYP, pro-luciferin dealkylation, luminescence, p450-cyp3a4; series mostly up to 57.1 µM
Hit rate of the full screen: of about 16,000 compounds, about 5,100 (32%) were called active. Roughly 25% stayed inconclusive and do not appear here. Some of the results follow.
# key: entry, value: AC50

compound	AC50
CN(CCc1ccc(Cl)c(Cl)c1)[C@H]1CCCC[C@H]1N1CCCC1	12.6 µM (active)
CC(C)c1ccc2c(c1)c(SC(C)(C)C)c(CC(C)(C)C(=O)O)n2Cc1ccc(Cl)cc1	20 µM (active)
CCC/C=C(\CCC)C(NP(=O)(c1ccccc1)c1ccccc1)c1ccccc1 (stereo unspecified)	6.31 µM (active)
COc1cc(CNC(=O)CCCC/C=C\C(C)C)ccc1O	3.98 µM (active)
NNC(=O)c1ccc(O)cc1	5.01 µM (active)

Query: Which AC50 value belongs to CSC([N-]/N=C/c1cccc(C)n1)=[S]=[Cu].CS[C@H]([S-])[N-]/N=C/c1cccc(C)n1 ?
Response: 3.98 µM (active)

Query: Which AC50 value belongs to COc1cc2c(cc1OC)[C@@H]1C(=O)c3ccc4c(c3O[C@@H]1CO2)C=CC(C)(C)O4 ?
Response: 15.8 µM (active)

Query: Which AC50 value belongs to NC(=NCc1ccc(Cl)cc1)SCCCc1cnc[nH]1 ?
Response: 1.58 µM (active)

Query: Which AC50 value belongs to COC(=O)[C@@]1(Cc2ccc(F)cc2)[C@H]2c3cc(C(=O)N(C)C)[nH]c3C[C@H]2CN1C(=O)c1ccccc1 ?
Response: 0.631 µM (active)

Query: Which AC50 value belongs to CCSc1nnc(C(N)Cc2ccccc2)o1 (stereo unspecified) ?
Response: 11.2 µM (active)

Query: Which AC50 value belongs to O=C(Oc1ccccc1)N1CCC2(CCN(Cc3ccncc3)CC2)CC1 ?
Response: 12.6 µM (active)

Query: Which AC50 value belongs to CCCCc1nc2ccccc2c(=O)n1-c1ccccc1[N+](=O)[O-] ?
Response: 15.8 µM (active)

Query: Which AC50 value belongs to NC(=NCCc1ccc(I)cc1)SCCCc1cnc[nH]1 ?
Response: 0.794 µM (active)

Query: Which AC50 value belongs to S=C=Nc1cccc(C2(N3CCCCC3)CCCCC2)c1 ?
Response: 15.8 µM (active)

Query: Which AC50 value belongs to CC(C)[C@H](CO)Nc1nc(Nc2cccc(Cl)c2)c2ncn(C(C)C)c2n1 ?
Response: 12.6 µM (active)

Data provenance is PubChem BioAssay AID1851.
